Give PGC/ERR-HEK293 Follow-Up Efficacy for every item shown.
Molecular target: ERRα with PGC-1α (PGC/ERR pathway) (Homo sapiens, UniProt P11474)
Sequence (P11474 whole entry): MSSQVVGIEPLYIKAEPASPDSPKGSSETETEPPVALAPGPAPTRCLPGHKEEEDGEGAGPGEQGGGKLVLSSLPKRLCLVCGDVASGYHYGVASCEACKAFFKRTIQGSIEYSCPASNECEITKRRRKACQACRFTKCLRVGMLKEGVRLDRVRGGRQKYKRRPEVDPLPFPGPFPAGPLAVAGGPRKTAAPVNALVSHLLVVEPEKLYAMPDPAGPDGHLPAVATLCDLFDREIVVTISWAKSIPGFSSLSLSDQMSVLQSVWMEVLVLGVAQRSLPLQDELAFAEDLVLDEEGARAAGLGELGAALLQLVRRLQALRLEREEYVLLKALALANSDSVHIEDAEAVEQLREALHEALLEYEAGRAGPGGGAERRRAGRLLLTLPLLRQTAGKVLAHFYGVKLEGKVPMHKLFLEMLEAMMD
Test: PGC/ERR reporter (luciferase) qHTS assay, PGC/ERR-HEK293
Details: follow-up screen; negative = antagonism, positive = agonism
Structures can show the parent of a compound that is named as a salt.
Numeric only. Scale: %

QUERY: Fill in PGC/ERR-HEK293 Follow-Up Efficacy for record COc1ccc2cc3[n+](cc2c1OC)CCc1cc2c(cc1-3)OCO2 [Berberine]
RESULT: −87.4

QUERY: Fill in PGC/ERR-HEK293 Follow-Up Efficacy for record CC[C@@]1(O)C(=O)OCc2c1cc1n(c2=O)Cc2cc3c(CN(C)C)c(O)ccc3nc2-1 [Topotecan hydrochloride]
RESULT: −78.8

QUERY: Fill in PGC/ERR-HEK293 Follow-Up Efficacy for record C=C(C)[C@H]1Cc2c(ccc3c2O[C@@H]2COc4cc(OC)c(OC)cc4[C@@H]2C3=O)O1 [Rotenone]
RESULT: −41.9

====

Biological target: ERRα with PGC-1α (PGC/ERR pathway) (Homo sapiens)
Test: PGC/ERR reporter (luciferase) qHTS assay, PGC/ERR-HEK293
Details: potency, ERR/PGC antagonist assay, primary screen
readout_kind: EC50

QUERY: Lab note: record EC50 of Cc1nn(C)c(Oc2ccccc2)c1C=NOCc1ccc(C(=O)OC(C)(C)C)cc1 [Fenpyroximate] tested on ERRα with PGC-1α (PGC/ERR pathway) (Homo sapiens).
RESULT: 8.8 nM

====

Target: estrogen-related receptor alpha (ERRα) (Homo sapiens)
Sequence (P11474 whole entry): as above
Experiment: ERR reporter (luciferase) antagonist qHTS assay, ERR-HEK293
Conditions: primary qHTS; relative to XCT790 = −100%, DMSO = 0%
readout_kind: ERR-HEK293 Primary Efficacy (%)
Numeric only. Scale: %

QUERY: Fill in ERR-HEK293 Primary Efficacy for record C[C@@H]1CC[C@H]2[C@@H](C)C(=O)O[C@@H]3O[C@@]4(C)CC[C@@H]1[C@]32OO4 [Artemisinin]
RESULT: −71.6

QUERY: Fill in ERR-HEK293 Primary Efficacy for record COc1cc([C@@H]2c3cc4c(cc3[C@@H](O[C@@H]3O[C@@H]5CO[C@@H](C)O[C@H]5[C@H](O)[C@H]3O)[C@H]3COC(=O)[C@H]23)OCO4)cc(OC)c1O [Etoposide]
RESULT: −115

QUERY: Fill in ERR-HEK293 Primary Efficacy for record Cc1nn(C)c(Oc2ccccc2)c1C=NOCc1ccc(C(=O)OC(C)(C)C)cc1 [Fenpyroximate]
RESULT: −67.1

QUERY: Fill in ERR-HEK293 Primary Efficacy for record O=c1[nH]c(=O)n([C@H]2C[C@H](O)[C@@H](CO)O2)cc1C(F)(F)F [Trifluridine]
RESULT: −51.8
